The values you see were collected from ChEMBL document CHEMBL1127071.

target: Endothelin receptor type B (Rattus norvegicus, UniProt P21451); assay: Effective concentration against Endothelin B receptor from rat cerebellum; assay type: tissue-based
Property name: pIC50
Numbers only, as −log10 of the molar value.

Entry Ac-FLDIIW-OH — recorded pIC50 = 4.73

###

Consider the following compounds; for each one, report its pIC50.
species: Oryctolagus cuniculus; experiment: Inhibition of ET-1 stimulated arachidonic acid release in rabbit renal artery vascular smooth muscle cells; type: functional
Where a SMILES comes first, the peptide text is derived from it. [ ]: non-standard residue; d: D form. d2Nal = N[C@H](Cc1ccc2ccccc2c1)C(=O)O
Answers are plain numbers, as −log10 of the molar value.

In the examples that follow, each entry is paired with its recorded pIC50.
CC[C@H](C)[C@H](NC(=O)[C@H](C)NC(=O)[C@H](CC(=O)O)NC(=O)[C@H](CC(C)C)NC(=O)[C@@H](Cc1ccccc1)NC(C)=O)C(=O)N[C@@H](Cc1c[nH]c2ccccc12)C(=O)O (Ac-[dF]LDAIW-OH); 5.82
CC[C@H](C)[C@H](NC(=O)[C@H](CC(=O)O)NC(=O)[C@H](Cc1ccccc1)NC(=O)[C@@H](Cc1ccccc1)NC(C)=O)C(=O)N[C@H](C(=O)N[C@@H](Cc1c[nH]c2ccccc12)C(=O)O)[C@@H](C)CC (stereo in doubt; 21); 5.66
CC[C@H](C)[C@H](NC(=O)[C@H](CC(=O)O)NC(=O)[C@H](C)NC(=O)[C@@H](Cc1ccccc1)NC(C)=O)C(=O)N[C@H](C(=O)N[C@@H](Cc1c[nH]c2ccccc12)C(=O)O)[C@@H](C)CC (Ac-[dF]ADIIW-OH); 6.48
CC[C@H](C)[C@H](NC(=O)[C@H](CC(=O)O)NC(=O)[C@H](CCC(=O)O)NC(=O)[C@@H](Cc1ccccc1)NC(C)=O)C(=O)N[C@@H](Cc1c[nH]c2ccccc12)C(=O)O; 6.22
CC[C@H](C)[C@H](NC(=O)[C@H](CC(=O)O)NC(=O)[C@H](CC(C)C)NC(=O)[C@@H](Cc1ccc2ccccc2c1)NC(C)=O)C(=O)N[C@H](C(=O)N[C@@H](Cc1c[nH]c2ccccc12)C(=O)O)[C@@H](C)CC (Ac-[d2Nal]LDIIW-OH); 5.72

Switching to the query record.
Given item CC[C@H](C)[C@H](NC(=O)[C@H](CC(=O)O)NC(=O)[C@H](CC(C)C)NC(=O)[C@@H](Cc1ccc(O)cc1)NC(C)=O)C(=O)N[C@H](C(=O)N[C@@H](Cc1c[nH]c2ccccc12)C(=O)O)[C@@H](C)CC (Ac-[dY]LDIIW-OH) , the value recorded as its pIC50 is 6.60

###

I'd be grateful if you could share measured IC50 for these entries.
Biological target: Endothelin receptor type B (Rattus norvegicus)
Sequence (P21451 whole entry): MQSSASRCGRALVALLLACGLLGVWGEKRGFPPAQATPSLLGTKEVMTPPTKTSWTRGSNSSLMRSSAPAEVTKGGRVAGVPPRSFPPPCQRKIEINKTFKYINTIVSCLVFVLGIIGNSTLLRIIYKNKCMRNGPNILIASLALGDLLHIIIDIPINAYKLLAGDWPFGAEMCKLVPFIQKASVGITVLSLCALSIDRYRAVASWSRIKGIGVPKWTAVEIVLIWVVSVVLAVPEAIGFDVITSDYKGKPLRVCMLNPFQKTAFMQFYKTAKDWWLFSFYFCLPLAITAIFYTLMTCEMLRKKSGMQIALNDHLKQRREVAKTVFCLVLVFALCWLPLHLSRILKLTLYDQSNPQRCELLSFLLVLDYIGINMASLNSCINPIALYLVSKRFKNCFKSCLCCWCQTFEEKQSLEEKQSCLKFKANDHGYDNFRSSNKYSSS
Where a SMILES comes first, the peptide text is derived from it. [ ]: non-standard residue; d: D form.

CC[C@H](C)[C@H](NC(=O)[C@H](CC(=O)O)NC(=O)[C@H](CC(C)C)NC(=O)[C@H](N)Cc1ccccc1)C(=O)N[C@H](C(=O)N[C@@H](Cc1c[nH]c2ccccc12)C(=O)O)[C@@H](C)CC; 2.6 µM
CC[C@H](C)[C@H](NC(=O)[C@H](CC(=O)O)NC(=O)[C@H](CC(C)C)NC(=O)[C@@H](Cc1ccccc1)NC(C)=O)C(=O)N[C@@H](Cc1c[nH]c2ccccc12)C(=O)O (Ac-[dF]LDIW-OH); > 10 µM
CC[C@H](C)[C@H](NC(=O)[C@@H](NC(=O)[C@@H](Cc1ccccc1)NC(C)=O)[C@@H](C)CC)C(=O)N[C@@H](Cc1c[nH]c2ccccc12)C(=O)O (Ac-[dF]IIW-OH); > 10 µM
CC[C@H](C)[C@H](NC(=O)[C@H](CCCCN)NC(=O)[C@H](CC(=O)O)NC(=O)[C@H](CC(C)C)NC(=O)[C@@H](Cc1ccccc1)NC(C)=O)C(=O)N[C@@H](Cc1c[nH]c2ccccc12)C(=O)O; > 10 µM
CC[C@H](C)[C@H](NC(=O)[C@H](CC(=O)O)NC(=O)[C@H](CC(C)C)NC(=O)[C@@H](Cc1ccccc1)NC(C)=O)C(=O)N[C@@H](C)C(=O)N[C@@H](Cc1c[nH]c2ccccc12)C(=O)O (Ac-[dF]LDIAW-OH); > 10 µM
CC[C@H](C)[C@H](NC(=O)[C@H](CC(=O)O)NC(=O)[C@H](CC(C)C)NC(=O)[C@@H](Cc1ccccc1)NC(C)=O)C(=O)N[C@H](C(=O)NC(Cc1cnc[nH]1)C(=O)O)[C@@H](C)CC (mixture of isomers); > 10 µM
CC[C@H](C)[C@H](NC(=O)[C@H](CC(=O)O)NC(=O)[C@H](CC(C)C)NC(=O)[C@@H](Cc1c[nH]cn1)NC(C)=O)C(=O)N[C@H](C(=O)N[C@@H](Cc1c[nH]c2ccccc12)C(=O)O)[C@@H](C)CC; 9.1 µM
CC[C@H](C)[C@H](NC(=O)[C@H](Cc1ccccc1)NC(=O)[C@H](CC(C)C)NC(=O)[C@@H](Cc1ccccc1)NC(C)=O)C(=O)N[C@H](C(=O)N[C@@H](Cc1c[nH]c2ccccc12)C(=O)O)[C@@H](C)CC (Ac-[dF]LFIIW-OH); 0.036 µM

Kindly give each listed record's IC50.
1. CC[C@H](C)[C@H](NC(=O)[C@@H](Cc1ccccc1)NC(C)=O)C(=O)N[C@@H](Cc1c[nH]c2ccccc12)C(=O)O (Ac-[dF]-Ile-Trp-OH)
2. CC[C@H](C)[C@H](NC(=O)[C@H](CC(=O)O)NC(=O)[C@H](CC(C)C)NC(=O)[C@@H](Cc1ccccc1)NC(C)=O)C(=O)N[C@H](C(=O)N[C@@H](Cc1ccc(O)cc1)C(=O)O)[C@@H](C)CC (Ac-[dF]LDIIY-OH)

1: > 10 µM; 2: 0.15 µM
